Data credit: PubChem BioAssay

growth inhibition by entry:
Experiment: S. cerevisiae growth inhibition in permissive medium (OD615), pilot counter-assay for S. cerevisiae lifespan shortening project, permissive growth control (AID 705)
Settings: OD615, 24 h, at 10 µM, active compounds read high
endpoint name: growth inhibition (%)

| compound | endpoint name | unit descriptor | val |
| --- | --- | --- | --- |
| Cc1nc2sc(C(c3cccs3)N3CCC(C(N)=O)CC3)c(O)n2n1 (stereo not drawn) | growth inhibition | % | -0.435 |
| COCCCN1C(=O)C(=O)/C(=C(/O)c2ccc(OCC(C)C)cc2C)C1c1cccnc1 (stereo not drawn) | growth inhibition | % | -1.21 |
| COCCN(CCOC)c1ncnc2c1cnn2-c1ccccc1 | growth inhibition | % | -5.8 |
| CCn1cc(C2=NOC(C(=O)Nc3c(C)nn(Cc4ccc(F)cc4)c3C)C2)c(C)n1 (stereo not drawn) | growth inhibition | % | -11.1 |
| COCCN(CCOC)Cc1c(C)[nH]c2ccccc2c1=O | growth inhibition | % | -0.675 |
| CC(C)c1nnc(NC(=O)c2cccs2)s1 | growth inhibition | % | -15 |
| CCN(CC)C(=O)Cn1ncc2c1-c1ccccc1OC2 | growth inhibition | % | -13.3 |
| COc1ccccc1N1CCN(C(=O)C2CCN(S(=O)(=O)c3ccc(F)cc3)CC2)CC1 | growth inhibition | % | -13.6 |
| Brc1cccc(-c2nnc(SCc3ccon3)n2-c2ccccc2)c1 | growth inhibition | % | -5.09 |
| Cc1sc2nc(CSc3nnc(Cc4cccs4)n3C3CCCCC3)[nH]c(=O)c2c1C | growth inhibition | % | 10.9 |
| O=C(CN1C(=O)CSc2ncccc21)NCCN1CCOCC1 | growth inhibition | % | 0.545 |
| CC1CCCC(NC(=O)c2ccc(CNc3c(N4CCCC4)c(=O)c3=O)cc2)C1C (stereo not drawn) | growth inhibition | % | -6.62 |
| CCSc1nnc(N2C(=O)CC(c3ccsc3)C3=C2CC(C)(C)CC3=O)s1 (stereo not drawn) | growth inhibition | % | 2.55 |
| CC(=O)NCCc1ccc(S(=O)(=O)N2CCCC2)cc1 | growth inhibition | % | -6.14 |
| COc1cccc(C2C3=C(N=C4SCC(=O)N42)c2ccccc2CC3)c1OC (stereo not drawn) | growth inhibition | % | -15.1 |
| COc1ccc(CNC(=O)c2ccc3c(c2)N(C)C(=O)CS3=O)cc1 (stereo not drawn) | growth inhibition | % | -1 |
| COc1cccc(C2NC(=O)NC(C)=C2C(=O)Nc2ccc(C)cc2)c1 (stereo not drawn) | growth inhibition | % | -9.18 |
| COC(=O)C1=C(C)Nc2nnnn2C1c1ccc(Cl)cc1Cl (stereo not drawn) | growth inhibition | % | 2.67 |
| Cc1nc(Sc2nnnn2-c2ccccc2)c(C#N)c(C)c1C | growth inhibition | % | -13.8 |
| COc1ccc(OC)c(C(=O)c2ccc(C(=O)O)cc2)c1 | growth inhibition | % | -10.1 |
| COc1ccc(S(=O)(=O)Cc2ccc(C(=O)NC3CC3)o2)cc1 | growth inhibition | % | 1.37 |
| CC(C)NC(=O)c1ccc2c(c1)nnn2C | growth inhibition | % | -7.61 |
| CCCSc1nnc(N2C(=O)CC(c3ccsc3)C3=C2CCCC3=O)s1 (stereo not drawn) | growth inhibition | % | -3.18 |
